Where these numbers come from: PubChem BioAssay AID504332

# study_target: Histone-lysine N-methyltransferase EHMT2 (Homo sapiens)
# method_description: qHTS Assay for Inhibitors of Histone Lysine Methyltransferase G9a; note: nearly all actives have a fitted effect of over 75% in size
# condition_details: G9a H3K9 monomethylation, AlphaScreen, 2 h; series mostly up to 59 µM
Out of some 350,000 compounds screened, about 31,000 (8.9%) were called active. Not shown: some 15% with an inconclusive outcome. Calls come from the whole dose curve; as a rule, active = well fitted inhibition curve with a large enough effect; inconclusive = small, poorly fitted or top-dose-only effect; inactive = no such curve, though single readings can be large or run the other way. This excerpt belongs to a sample that is enriched for actives.
Outcomes: Yes for active, No for inactive

>  <molecule>
COc1ccc(NC(=O)CN(C)C(=O)c2cccc(S(=O)(=O)N3CCN(c4ccccc4)CC3)c2)cc1

>  <study_target>
Histone-lysine N-methyltransferase EHMT2 (Homo sapiens)

>  <cat>
No

$$$$
>  <molecule>
O=C(/C=C/c1ccccc1[N+](=O)[O-])OC1CCCCC1=O (configuration not stated)

>  <study_target>
Histone-lysine N-methyltransferase EHMT2 (Homo sapiens)

>  <cat>
No

$$$$
>  <molecule>
Cc1ccccc1CNC(=O)c1cccc(NC(=O)c2nsc3ccccc23)c1

>  <study_target>
Histone-lysine N-methyltransferase EHMT2 (Homo sapiens)

>  <cat>
No

$$$$
>  <molecule>
CC(=O)c1ccc(NC(=O)c2nc(-c3ccc(C)cc3)n3c2CCCCC3)cc1

>  <study_target>
Histone-lysine N-methyltransferase EHMT2 (Homo sapiens)

>  <cat>
No

$$$$
>  <molecule>
CCC(CC)c1nnc(NS(=O)(=O)Cc2ccccc2)s1

>  <study_target>
Histone-lysine N-methyltransferase EHMT2 (Homo sapiens)

>  <cat>
Yes

$$$$
>  <molecule>
O=C(/C=C/c1ccccc1[N+](=O)[O-])NCC1CCCO1 (configuration not stated)

>  <study_target>
Histone-lysine N-methyltransferase EHMT2 (Homo sapiens)

>  <cat>
No

$$$$
>  <molecule>
CCCCOc1ccc(CN2C(=O)C(=O)c3cc(Br)cc(C)c32)cc1OC

>  <study_target>
Histone-lysine N-methyltransferase EHMT2 (Homo sapiens)

>  <cat>
Yes

$$$$
>  <molecule>
COc1ccc(Cc2nnc(NS(=O)(=O)Cc3ccccc3)s2)cc1

>  <study_target>
Histone-lysine N-methyltransferase EHMT2 (Homo sapiens)

>  <cat>
No

$$$$
>  <molecule>
CC1CC(C)CN(C/C=C/c2ccccc2[N+](=O)[O-])C1 (configuration not stated)

>  <study_target>
Histone-lysine N-methyltransferase EHMT2 (Homo sapiens)

>  <cat>
Yes

$$$$
>  <molecule>
Cc1cc(C)cc(NS(=O)(=O)Cc2ccccc2)c1

>  <study_target>
Histone-lysine N-methyltransferase EHMT2 (Homo sapiens)

>  <cat>
No

$$$$
>  <molecule>
COc1ccc(N=Nc2ccc(O)c(P(=O)(c3ccccc3)c3ccccc3)c2)cc1

>  <study_target>
Histone-lysine N-methyltransferase EHMT2 (Homo sapiens)

>  <cat>
No

$$$$
>  <molecule>
CCOc1ccc(CNC(=O)c2ccc(CS(=O)c3ccccc3)o2)cc1 (configuration not stated)

>  <study_target>
Histone-lysine N-methyltransferase EHMT2 (Homo sapiens)

>  <cat>
No

$$$$
>  <molecule>
O=C(Nc1nc(-c2ccncc2)cs1)C1COc2ccccc2O1 (configuration not stated)

>  <study_target>
Histone-lysine N-methyltransferase EHMT2 (Homo sapiens)

>  <cat>
Yes

$$$$
>  <molecule>
CC(C)c1ccc(Cn2c(COc3ccccc3)nc3ccccc32)cc1

>  <study_target>
Histone-lysine N-methyltransferase EHMT2 (Homo sapiens)

>  <cat>
No

$$$$
>  <molecule>
COc1ccccc1C(CNC(=O)c1cccc(NS(=O)(=O)c2ccc(Br)cc2)c1)N(C)C (configuration not stated)

>  <study_target>
Histone-lysine N-methyltransferase EHMT2 (Homo sapiens)

>  <cat>
No

$$$$
>  <molecule>
COc1ccccc1NC(=O)c1cc(S(=O)(=O)NCCc2ccccc2)ccc1F

>  <study_target>
Histone-lysine N-methyltransferase EHMT2 (Homo sapiens)

>  <cat>
No

$$$$
>  <molecule>
Cc1cc(C)n(-c2ccc(C(=O)O)cc2[N+](=O)[O-])n1

>  <study_target>
Histone-lysine N-methyltransferase EHMT2 (Homo sapiens)

>  <cat>
No

$$$$
>  <molecule>
CC(C)CNC(=O)COC(=O)/C=C/c1ccccc1[N+](=O)[O-]

>  <study_target>
Histone-lysine N-methyltransferase EHMT2 (Homo sapiens)

>  <cat>
No

$$$$
>  <molecule>
CCCCOc1ccc(Cn2c(=O)oc3ccc(C)cc32)cc1OC

>  <study_target>
Histone-lysine N-methyltransferase EHMT2 (Homo sapiens)

>  <cat>
No

$$$$
>  <molecule>
O=C(Nc1nc2c(F)cc(F)cc2s1)C1COc2ccccc2O1 (configuration not stated)

>  <study_target>
Histone-lysine N-methyltransferase EHMT2 (Homo sapiens)

>  <cat>
No

$$$$
>  <molecule>
CCS(=O)(=O)c1ccc(-c2cccc(NC(=O)c3ccc(Br)o3)c2)nn1

>  <study_target>
Histone-lysine N-methyltransferase EHMT2 (Homo sapiens)

>  <cat>
No

$$$$
>  <molecule>
COc1ccccc1N1CCN(C2C(=O)c3ccccc3N2C(C)=O)CC1 (configuration not stated)

>  <study_target>
Histone-lysine N-methyltransferase EHMT2 (Homo sapiens)

>  <cat>
No

$$$$
